Ratio Ki for assorted molecules
target: Opioid receptors; mu & delta (Rattus norvegicus) (UniProt P33533+P33535); assay: Selectivity ratio of rat mu opioid receptor over rat delta opioid receptor; assay type: protein assay
Sequence (P33533 whole entry, looked up): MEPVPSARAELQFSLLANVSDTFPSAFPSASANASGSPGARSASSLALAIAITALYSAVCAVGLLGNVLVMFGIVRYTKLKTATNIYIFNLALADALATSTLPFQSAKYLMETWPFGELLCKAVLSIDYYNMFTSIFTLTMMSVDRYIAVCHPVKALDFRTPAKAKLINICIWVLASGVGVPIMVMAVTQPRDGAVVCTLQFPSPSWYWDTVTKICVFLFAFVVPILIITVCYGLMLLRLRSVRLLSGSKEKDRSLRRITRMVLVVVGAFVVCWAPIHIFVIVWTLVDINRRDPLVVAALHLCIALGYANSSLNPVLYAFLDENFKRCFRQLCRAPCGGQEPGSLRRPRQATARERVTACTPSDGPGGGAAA
Sequence (P33535 whole entry, looked up): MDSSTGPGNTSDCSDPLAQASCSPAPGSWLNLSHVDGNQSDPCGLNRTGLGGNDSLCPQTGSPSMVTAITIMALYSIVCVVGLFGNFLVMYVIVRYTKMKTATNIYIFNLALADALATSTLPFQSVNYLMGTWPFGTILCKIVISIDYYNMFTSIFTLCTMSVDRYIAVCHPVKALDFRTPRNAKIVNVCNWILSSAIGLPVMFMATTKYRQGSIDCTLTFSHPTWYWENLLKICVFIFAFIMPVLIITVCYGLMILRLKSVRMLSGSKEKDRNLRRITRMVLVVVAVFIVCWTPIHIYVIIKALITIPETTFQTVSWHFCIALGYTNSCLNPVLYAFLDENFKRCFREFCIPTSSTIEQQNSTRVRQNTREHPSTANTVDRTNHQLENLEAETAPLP
Answer using only a numeral; do not append any unit.

Ratio Ki for Cc1cc(O)cc(C)c1C[C@H](N)C(=O)N1Cc2ccccc2CC1C(=O)NCCCCNC(=O)C1Cc2ccccc2CN1C(=O)[C@@H](N)Cc1c(C)cc(O)cc1C (stereo partly specified) is 46

Ratio Ki for Cc1cc(O)cc(C)c1C[C@H](N)C(=O)N1Cc2ccccc2CC1C(=O)NCCCCCCCCCCNC(=O)C1Cc2ccccc2CN1C(=O)[C@@H](N)Cc1c(C)cc(O)cc1C (stereo partly specified) is 3

====

Activity for assorted molecules
target: Delta-type opioid receptor (Mus musculus); test: Maximal inhibition of muscle contraction in mouse vas deferens at 10000 nM; format: functional, tissue-based; design: scale not given: the % may be the effect or the level left; conditions: Muscle tissue

Use the examples below as a reference point.
Cc1cc(O)cc(C)c1C[C@H](N)C(=O)N1Cc2ccccc2CC1C(=O)NCCCCCCCCCCNC(=O)C1Cc2ccccc2CN1C(=O)[C@@H](N)Cc1c(C)cc(O)cc1C (some centres not stated)
< 28%
Cc1cc(O)cc(C)c1C[C@H](N)C(=O)N1Cc2ccccc2CC1C(=O)NCCCCNC(=O)C1Cc2ccccc2CN1C(=O)[C@@H](N)Cc1c(C)cc(O)cc1C (some centres not stated)
< 1%
Cc1cc(O)cc(C)c1C[C@H](N)C(=O)N1Cc2ccccc2CC1C(=O)NCCCCc1nc(C)c(CCCNC(=O)C2Cc3ccccc3CN2C(=O)[C@@H](N)Cc2c(C)cc(O)cc2C)nc1O (some centres not stated)
22%
Cc1cc(O)cc(C)c1C[C@H](N)C(=O)N1Cc2ccccc2CC1C(=O)NCCc1nc(O)c(CCNC(=O)C2Cc3ccccc3CN2C(=O)[C@@H](N)Cc2c(C)cc(O)cc2C)nc1C (some centres not stated)
< 1%
Cc1cc(O)cc(C)c1C[C@H](N)C(=O)N1Cc2ccccc2CC1C(=O)NCCCCc1nc(O)c(CCNC(=O)C2Cc3ccccc3CN2C(=O)[C@@H](N)Cc2c(C)cc(O)cc2C)nc1C (some centres not stated)
< 1%

Activity for Cc1cc(O)cc(C)c1C[C@H](N)C(=O)N1Cc2ccccc2CC1C(=O)NCc1nc(O)c(CNC(=O)C2Cc3ccccc3CN2C(=O)[C@@H](N)Cc2c(C)cc(O)cc2C)nc1C (some centres not stated) is < 1%

Activity for Cc1cc(O)cc(C)c1C[C@H](N)C(=O)N1Cc2ccccc2CC1C(=O)NCCCCc1nc(O)c(CCCCNC(=O)C2Cc3ccccc3CN2C(=O)[C@@H](N)Cc2c(C)cc(O)cc2C)nc1C (some centres not stated) is < 1%

====

target: Mu-type opioid receptor (Cavia porcellus, UniProt P97266); assay: Displacement of endomorphin-2 from mu opioid receptor in guinea pig ileum; format: tissue-based, Hartley; conditions: read-out: pA2 (converted)
Sequence (P97266 whole entry): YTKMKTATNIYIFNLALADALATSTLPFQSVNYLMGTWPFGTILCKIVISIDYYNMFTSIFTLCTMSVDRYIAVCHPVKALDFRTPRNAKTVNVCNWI
log10(Kb) for assorted compounds
Recall that a logarithmic scale is used here: each number is log10 of Kb in nM.

Cc1cc(O)cc(C)c1C[C@H](N)C(=O)N1Cc2ccccc2CC1C(=O)NCCCCc1nc(C)c(CCCNC(=O)C2Cc3ccccc3CN2C(=O)[C@@H](N)Cc2c(C)cc(O)cc2C)nc1O (stereo not given in full)
2.05
Cc1cc(O)cc(C)c1C[C@@H](C(=O)N1Cc2ccccc2CC1C(=O)NCCCCCCNC(=O)C1Cc2ccccc2CN1C(=O)[C@H](Cc1c(C)cc(O)cc1C)N(C)C)N(C)C (stereo not given in full)
0.66
Cc1cc(O)cc(C)c1C[C@@H](C(=O)N1Cc2ccccc2CC1C(=O)NCCCc1nc(O)c(CCCNC(=O)C2Cc3ccccc3CN2C(=O)[C@H](Cc2c(C)cc(O)cc2C)N(C)C)nc1C)N(C)C (stereo not given in full)
1.29
Cc1cc(O)cc(C)c1C[C@H](N)C(=O)N1Cc2ccccc2CC1C(=O)NCCc1nc(O)c(CCNC(=O)C2Cc3ccccc3CN2C(=O)[C@@H](N)Cc2c(C)cc(O)cc2C)nc1C (stereo not given in full)
2.22

Let us examine a further case.
log10(Kb) for Cc1cc(O)cc(C)c1C[C@H](N)C(=O)N1Cc2ccccc2CC1C(=O)NCCCCNC(=O)C1Cc2ccccc2CN1C(=O)[C@@H](N)Cc1c(C)cc(O)cc1C (stereo not given in full) is 2.01

====

biological target: UniProt:P97266; assay: Maximal inhibition of muscle contraction in guinea pig ileum at 10000 nM; assay type: functional, tissue-based; design: scale not given: the % may be the effect or the level left
endpoint.name: Activity

Cc1cc(O)cc(C)c1C[C@H](N)C(=O)N1Cc2ccccc2CC1C(=O)NCCc1nc(O)c(CCNC(=O)C2Cc3ccccc3CN2C(=O)[C@@H](N)Cc2c(C)cc(O)cc2C)nc1C (some centres undefined)
< 27%
Cc1cc(O)cc(C)c1C[C@H](N)C(=O)N1Cc2ccccc2CC1C(=O)NCc1nc(O)c(CNC(=O)C2Cc3ccccc3CN2C(=O)[C@@H](N)Cc2c(C)cc(O)cc2C)nc1C (some centres undefined)
< 15%
Cc1cc(O)cc(C)c1C[C@H](N)C(=O)N1Cc2ccccc2CC1C(=O)NCCCCNC(=O)C1Cc2ccccc2CN1C(=O)[C@@H](N)Cc1c(C)cc(O)cc1C (some centres undefined)
< 16%

Let us examine a further case.
Activity for Cc1cc(O)cc(C)c1C[C@H](N)C(=O)N1Cc2ccccc2CC1C(=O)NCCCCc1nc(O)c(CCCNC(=O)C2Cc3ccccc3CN2C(=O)[C@@H](N)Cc2c(C)cc(O)cc2C)nc1C (some centres undefined) is < 1%

====

Ratio Ki for assorted compounds
molecular target: Opioid receptors; mu & delta (Rattus norvegicus) (UniProt P33533+P33535); experiment: Selectivity ratio of rat mu opioid receptor over rat delta opioid receptor; format: protein assay

Use the examples below as a reference point.
Cc1cc(O)cc(C)c1C[C@@H](C(=O)N1Cc2ccccc2CC1C(=O)NCCCCCCNC(=O)C1Cc2ccccc2CN1C(=O)[C@H](Cc1c(C)cc(O)cc1C)N(C)C)N(C)C (stereo not given in full)
37
Cc1cc(O)cc(C)c1C[C@H](N)C(=O)N1Cc2ccccc2CC1C(=O)NCCCCc1nc(O)c(CCCNC(=O)C2Cc3ccccc3CN2C(=O)[C@@H](N)Cc2c(C)cc(O)cc2C)nc1C (stereo not given in full)
10
Cc1cc(O)cc(C)c1C[C@H](N)C(=O)N1Cc2ccccc2CC1C(=O)NCCc1nc(O)c(CCNC(=O)C2Cc3ccccc3CN2C(=O)[C@@H](N)Cc2c(C)cc(O)cc2C)nc1C (stereo not given in full)
30
Cc1cc(O)cc(C)c1C[C@H](N)C(=O)N1Cc2ccccc2CC1C(=O)NCCCCc1nc(O)c(CCNC(=O)C2Cc3ccccc3CN2C(=O)[C@@H](N)Cc2c(C)cc(O)cc2C)nc1C (stereo not given in full)
13

Ratio Ki for Cc1cc(O)cc(C)c1C[C@H](N)C(=O)N1Cc2ccccc2CC1C(=O)NCCCCc1nc(C)c(CCCNC(=O)C2Cc3ccccc3CN2C(=O)[C@@H](N)Cc2c(C)cc(O)cc2C)nc1O (stereo not given in full) is 25

====

molecular target: Mu-type opioid receptor (Rattus norvegicus)
Sequence (P33535 whole entry): as the sequence (P33535 whole entry, looked up) above
endpoint.name: Ki (nM)
Only the number, expressed in nM, is required.

Cc1cc(O)cc(C)c1C[C@H](N)C(=O)N1Cc2ccccc2CC1C(=O)NCCCCc1nc(O)c(CCCCNC(=O)C2Cc3ccccc3CN2C(=O)[C@@H](N)Cc2c(C)cc(O)cc2C)nc1C (some centres not stated)
1.74
Cc1cc(O)cc(C)c1C[C@H](N)C(=O)N1Cc2ccccc2CC1C(=O)NCCCCNC(=O)C1Cc2ccccc2CN1C(=O)[C@@H](N)Cc1c(C)cc(O)cc1C (some centres not stated)
5.72
Cc1cc(O)cc(C)c1C[C@H](N)C(=O)N1Cc2ccccc2CC1C(=O)NCCCCCCCCCCNC(=O)C1Cc2ccccc2CN1C(=O)[C@@H](N)Cc1c(C)cc(O)cc1C (some centres not stated)
4.86
Cc1cc(O)cc(C)c1C[C@H](N)C(=O)N1Cc2ccccc2CC1C(=O)NCc1nc(O)c(CNC(=O)C2Cc3ccccc3CN2C(=O)[C@@H](N)Cc2c(C)cc(O)cc2C)nc1C (some centres not stated)
3.76
Cc1cc(O)cc(C)c1C[C@H](N)C(=O)N1Cc2ccccc2CC1C(=O)NCCCCCCNC(=O)C1Cc2ccccc2CN1C(=O)[C@@H](N)Cc1c(C)cc(O)cc1C (some centres not stated)
1.79

Ki for Cc1cc(O)cc(C)c1C[C@H](N)C(=O)N1Cc2ccccc2CC1C(=O)NCCCc1nc(O)c(CCCNC(=O)C2Cc3ccccc3CN2C(=O)[C@@H](N)Cc2c(C)cc(O)cc2C)nc1C (some centres not stated) is 3.08

Ki for Cc1cc(O)cc(C)c1C[C@H](N)C(=O)N1Cc2ccccc2CC1C(=O)NCCCCc1nc(O)c(CCNC(=O)C2Cc3ccccc3CN2C(=O)[C@@H](N)Cc2c(C)cc(O)cc2C)nc1C (some centres not stated) is 1.37

Ki for Cc1cc(O)cc(C)c1C[C@H](N)C(=O)N1Cc2ccccc2CC1C(=O)NCCCCc1nc(C)c(CCCNC(=O)C2Cc3ccccc3CN2C(=O)[C@@H](N)Cc2c(C)cc(O)cc2C)nc1O (some centres not stated) is 2.28

Ki for Cc1cc(O)cc(C)c1C[C@H](N)C(=O)N1Cc2ccccc2CC1C(=O)NCCc1nc(O)c(CCNC(=O)C2Cc3ccccc3CN2C(=O)[C@@H](N)Cc2c(C)cc(O)cc2C)nc1C (some centres not stated) is 2.83

Ki for Cc1cc(O)cc(C)c1C[C@H](N)C(=O)N1Cc2ccccc2CC1C(=O)NCCCCc1[nH]c(=O)c(CCCNC(=O)C2Cc3ccccc3CN2C(=O)[C@@H](N)Cc2c(C)cc(O)cc2C)nc1C (some centres not stated) is 1.56

Ki for Cc1cc(O)cc(C)c1C[C@@H](C(=O)N1Cc2ccccc2CC1C(=O)NCCCc1nc(O)c(CCCNC(=O)C2Cc3ccccc3CN2C(=O)[C@H](Cc2c(C)cc(O)cc2C)N(C)C)nc1C)N(C)C (some centres not stated) is 1.68

Ki for Cc1cc(O)cc(C)c1C[C@@H](C(=O)N1Cc2ccccc2CC1C(=O)NCCCCCCNC(=O)C1Cc2ccccc2CN1C(=O)[C@H](Cc1c(C)cc(O)cc1C)N(C)C)N(C)C (some centres not stated) is 2.21
